TARGET_OF_ASSAY: HLA-B*53:01
PROCEDURE_SUMMARY: IEDB peptide-MHC binding, purified MHC/competitive/radioactivity; filed as Kd, often an IC50 or EC50 that approximates it; bounds were set here for any values at or beyond the usual limits of such assays
RUN_CONDITIONS: source organism: Plasmodium falciparum 3D7
MEASUREMENT_TYPE: pKd
FYI, pKd means -log10 of a concentration in mol per litre.

HPSDGKCNL : 5.48

Req: Would you mind telling me what pKd value was observed for `TPYAGEPAPF` ?
Resp: 6.80
